B1: HDV Ribozyme (parent)
chain: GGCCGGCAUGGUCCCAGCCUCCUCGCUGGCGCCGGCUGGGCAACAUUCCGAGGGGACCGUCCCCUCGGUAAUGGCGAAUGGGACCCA

- Variants of: B1
- Assay Text: self-cleavage, relative activity (ratio to wild type); higher = more cleavage; co-transcriptional
Classify as follows. Reported self-cleavage greater than or equal to 0.2: Y. Reported self-cleavage below: N.

Variant Key	Class
A16C C49U	Y

I'd appreciate it if you could say whether G67U U72A has self-cleavage at least equal to 0.2.
Y

I'd appreciate it if you could say whether G67A C75G has self-cleavage at least equal to 0.2.
N

I'd appreciate it if you could say whether G17U U72G has self-cleavage at least equal to 0.2.
N

I'd appreciate it if you could say whether U27C G80U has self-cleavage at least equal to 0.2.
Y

I'd appreciate it if you could say whether U37G C61A has self-cleavage at least equal to 0.2.
N

I'd appreciate it if you could say whether U9G A70U has self-cleavage at least equal to 0.2.
Y
